system: MONO-MAC-6; test: Antiproliferative activity against human MONO-MAC-6 cells assessed as inhibition of cell viability at 10^-6 M after 72 hrs by cell counting method; type: functional; conditions: MONO-MAC-6, 72 h, values are per cent of control

molecule	viability, % of control at 1 µM
COc1cccc2c1C(=O)c1c(O)c3c(c(O)c1C2=O)C[C@@](O)(C(C)=O)C[C@@H]3O[C@H]1C[C@H](N)[C@H](O)[C@H](C)O1 [DAUNORUBICIN]	16%
COc1cccc2c1C(=O)c1c(O)c3c(c(O)c1C2=O)C[C@@](O)(/C(C)=N/OCC(=O)NCCCC[C@H](NC(=O)[C@H](CCC(=O)O)NC(=O)c1ccc(N(C)Cc2cnc4nc(N)nc(N)c4n2)cc1)C(=O)NCCCC[C@H](NC(=O)[C@H](Cc1c[nH]c2ccccc12)NC(=O)[C@H](CC(=O)O)NC(=O)[C@H](Cc1cnc[nH]1)NC(=O)[C@H](CO)NC(=O)[C@H](Cc1c[nH]c2ccccc12)NC(=O)[C@H](Cc1cnc[nH]1)NC(=O)[C@@H]1CCC(=O)N1)C(=O)N1CCC[C@H]1C(=O)NCC(N)=O)C[C@@H]3O[C@H]1C[C@H](N)[C@H](O)[C@H](C)O1	38%
CN(Cc1cnc2nc(N)nc(N)c2n1)c1ccc(C(=O)N[C@@H](CCC(=O)O)C(=O)O)cc1 [METHOTREXATE]	29%
COc1cccc2c1C(=O)c1c(O)c3c(c(O)c1C2=O)C[C@@](O)(/C(C)=N/OCC(=O)NCCCC[C@H](NC(=O)[C@H](Cc1c[nH]c2ccccc12)NC(=O)[C@H](CC(=O)O)NC(=O)[C@H](Cc1cnc[nH]1)NC(=O)[C@H](CCCCNC(=O)[C@H](CCC(=O)O)NC(=O)c1ccc(N(C)Cc2cnc4nc(N)nc(N)c4n2)cc1)NC(=O)[C@H](Cc1c[nH]c2ccccc12)NC(=O)[C@H](Cc1cnc[nH]1)NC(=O)[C@@H]1CCC(=O)N1)C(=O)N1CCC[C@H]1C(=O)NCC(N)=O)C[C@@H]3O[C@H]1C[C@H](N)[C@H](O)[C@H](C)O1	76%
